assay.explanation: self-splicing fitness, log relative to wild type (ln ratio); higher = more splicing; Tetrahymena group I intron in knt gene, E. coli kanamycin selection, DiMSum; sequences stand for … in CUCUCU…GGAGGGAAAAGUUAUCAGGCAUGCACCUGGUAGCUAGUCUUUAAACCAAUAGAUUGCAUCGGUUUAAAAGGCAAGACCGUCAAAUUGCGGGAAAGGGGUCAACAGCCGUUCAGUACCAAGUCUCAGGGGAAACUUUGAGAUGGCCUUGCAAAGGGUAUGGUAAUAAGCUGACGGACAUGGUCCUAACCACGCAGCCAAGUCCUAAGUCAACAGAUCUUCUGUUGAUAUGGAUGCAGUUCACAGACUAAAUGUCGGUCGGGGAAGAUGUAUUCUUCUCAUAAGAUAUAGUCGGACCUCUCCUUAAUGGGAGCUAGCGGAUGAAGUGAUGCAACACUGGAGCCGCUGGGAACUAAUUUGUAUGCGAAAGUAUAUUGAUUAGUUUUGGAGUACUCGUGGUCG;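 also: selection with 25 µg/mL kanamycin versus none on LB agar overnight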
test.context: 30 °C
Please go through the items and note down their self-splicing fitness (ln).

- UACGAGCAAUAUUACGAGAC: -3.68
- UUACAGCAAUAUUACGGAAA: -1.42
- CAUCAGCAAUAUUACGGUGU: -4.64
- AUAUAGCAAUAUUACGCCUU: -1.01
- UAAUAGCAAUAUUACGCGAG: -1.62

I would be grateful if you could provide self-splicing fitness (ln) for each of the following entries.
1. AGCUAGCAAUAUUACGCGAG
2. ACGAAGCAAUAUUACGAGUA
3. CCCUAGCAAUAUUACGUUUC
4. ACCCAGCAAUAUUACGCGUU
5. UUCCAGCAAUAUUACGCAAC
6. CUUCAGCAAUAUUACGUGGA
7. CUUGAGCAAUAUUACGUCUG
8. CAAAAGCAAUAUUACGCUUA

Result block:
-2.38
-3.49
-3.32
-0.424
-3.02
-3.13
-0.671
-3.17
